Each entry below carries its reported MIC.
test system: Staphylococcus aureus; assay: Antibacterial activity against methicillin-resistant Staphylococcus aureus clinical isolate M-4 incubated for 16 to 18 hrs CLSI based by microbroth dilution assay; type: functional; details: time 16-18 hrs
Report the figure in µg/mL without appending any unit label.

Staphylococcus aureus assay, compound CCCNC(=O)C[N+](C)(C)CCCCn1c(-c2ccc(N(C)C)cc2)nc2c3ccccc3c3ccccc3c21.[Br-] , recorded MIC = 8

Staphylococcus aureus assay, compound CC(C)N(C(=O)C[N+](C)(C)CCCn1c(-c2ccc(N(C)C)cc2)nc2c3ccccc3c3ccccc3c21)C(C)C.[Br-] , recorded MIC = 2

* * *

tested on: Escherichia coli; experiment: Antibacterial activity against Escherichia coli ATCC 25922 incubated for 16 to 18 hrs CLSI based by microbroth dilution assay; type: functional; details: time 16-18 hrs
ENDPOINT: MIC

Check out these entries, answers already filled in.
CCN(CC)C(=O)C[N+](C)(C)CCCCn1c(-c2ccc(N(C)C)cc2)nc2c3ccccc3c3ccccc3c21.[Br-] ... > 128 µg/mL
CCCCN(CCCC)C(=O)C[N+](C)(C)CCCCCn1c(-c2ccc(N(C)C)cc2)nc2c3ccccc3c3ccccc3c21.[Br-] ... > 128 µg/mL
CC(C)N(C(=O)C[N+](C)(C)CCCCn1c(-c2ccc(N(C)C)cc2)nc2c3ccccc3c3ccccc3c21)C(C)C.[Br-] ... > 128 µg/mL
CCCCCCNC(=O)C[N+](C)(C)CCCn1c(-c2ccc(N(C)C)cc2)nc2c3ccccc3c3ccccc3c21.[Br-] ... > 128 µg/mL
CC(C)N(C(=O)C[N+](C)(C)CCCn1c(-c2ccc(N(C)C)cc2)nc2c3ccccc3c3ccccc3c21)C(C)C.[Br-] ... > 128 µg/mL

Consider the record given below.
Field MIC (entry O=C1C(=O)c2ccccc2-c2ccccc21 [9,10-PHENANTHRENEQUINONE] ) reads > 64 µg/mL

* * *

Each entry below carries its reported MIC.
test system: Escherichia coli; assay: Antibacterial activity against Escherichia coli ATCC 25922 incubated for 16 to 18 hrs CLSI based by microbroth dilution assay; format: functional; settings: time 16-18 hrs
Report the figure in µg/mL without appending any unit label.

CCCNC(=O)C[N+](C)(C)CCCCCn1c(-c2ccc(N(C)C)cc2)nc2c3ccccc3c3ccccc3c21.[Br-] ... 64

Consider the record given below.
Field MIC (entry CCCCN(CCCC)C(=O)C[N+](C)(C)CCCCn1c(-c2ccc(N(C)C)cc2)nc2c3ccccc3c3ccccc3c21.[Br-] ) reads 64

* * *

Each entry below carries its reported HC50 at 1 h.
test: Hemolytic activity in sheep erythrocytes incubated for 1 hr by absorbance based assay; format: toxicity, cell-based, Ovis aries, Erythrocyte
Report the figure in µg/mL without appending any unit label.

CCCCCCNC(=O)C[N+](C)(C)CCCCn1c(-c2ccc(N(C)C)cc2)nc2c3ccccc3c3ccccc3c21.[Br-] ... 353
CCCCN(CCCC)C(=O)C[N+](C)(C)CCCCn1c(-c2ccc(N(C)C)cc2)nc2c3ccccc3c3ccccc3c21.[Br-] ... 79.5
CCCNC(=O)C[N+](C)(C)CCCCn1c(-c2ccc(N(C)C)cc2)nc2c3ccccc3c3ccccc3c21.[Br-] ... 290
CC(C)N(C(=O)C[N+](C)(C)CCCCCn1c(-c2ccc(N(C)C)cc2)nc2c3ccccc3c3ccccc3c21)C(C)C.[Br-] ... 688
CCN(CC)C(=O)C[N+](C)(C)CCCCn1c(-c2ccc(N(C)C)cc2)nc2c3ccccc3c3ccccc3c21.[Br-] ... 16
CCCCCNC(=O)C[N+](C)(C)CCCCCn1c(-c2ccc(N(C)C)cc2)nc2c3ccccc3c3ccccc3c21.[Br-] ... 572

Consider the record given below.
Field HC50 at 1 h (entry CCCN(CCC)C(=O)C[N+](C)(C)CCCCCn1c(-c2ccc(N(C)C)cc2)nc2c3ccccc3c3ccccc3c21.[Br-] ) reads 99.4

Each recorded value in this set is attributed to ChEMBL document CHEMBL5512637.
